Origin of measurements: patent US7977365B2

Tested on: Lassa GP-pseudotyped-virus
Assay: microbe, parasite or virus in culture
Format: cell-based, Lassa fever virus
Settings: Human immunodeficiency virus 1, read-out: Activity against Lassa GP-pseudotyped-virus EC50
measured_metric: EC50 (nM)

>>> observed_result("COc1ccc(-n2cnc3cc(NCc4ccccc4OC)ccc32)cc1 [Compound 600146]")
300
>>> observed_result("COc1ccc(-n2cnc3cc(NCc4cccc5ccccc45)ccc32)cc1 [Compound 600149]")
60
>>> observed_result("CCOc1ccc(CN(c2ccc3c(c2)ncn3-c2ccccc2OC)S(=O)(=O)c2ccc(C)cc2)cc1 [Compound 600179]")
110

====

System: Tacaribe GP
Experiment: organism not typed
Type: cell-based
Conditions: HEK-293T, 72 h, read-out: IC50 ± SEM, Tacaribe GP pseudotype
measured_metric: IC50 (nM)

>>> observed_result("COc1ccc(-n2cnc3cc(NCc4ccc(C(C)C)cc4)ccc32)cc1")
4

====

Test system: Junín GP
Assay: organism not typed
Type: cell-based
Conditions: HEK-293T, 72 h, read-out: IC50 ± SEM, Junín GP pseudotype
measured_metric: IC50 (nM)

>>> observed_result("COc1ccc(-n2cnc3cc(NCc4ccc(C(C)C)cc4)ccc32)cc1 [Compound 600193]")
0.2

====

System: Lassa GP-pseudotyped-virus
Assay: microbe, parasite or virus in culture
Type: cell-based, Lassa fever virus
Settings: Human immunodeficiency virus 1, read-out: Activity against Lassa GP-pseudotyped-virus EC50
EC50: recorded values
measured_metric: EC50 (nM)

>>> observed_result("COc1ccc(-n2cnc3cc(NCc4cccc(OC)c4OC)ccc32)cc1")
100
>>> observed_result("CN(C)c1ccc(CNc2ccc3c(c2)ncn3-c2ccccc2)cc1")
11000
>>> observed_result("COc1ccc(CNc2ccc3c(c2)ncn3-c2ccc(OC)cc2)cc1")
16
>>> observed_result("COc1ccc(-n2cnc3cc(NCc4ccc(Br)cc4)ccc32)cc1")
40
>>> observed_result("COc1ccc(-n2cnc3cc(N(Cc4ccc(C(C)C)cc4)S(=O)(=O)c4ccc(C)cc4)ccc32)cc1")
200
>>> observed_result("COc1ccc(-n2cnc3cc(NCc4cccc(OC)c4)ccc32)cc1")
40
>>> observed_result("COc1ccc(-n2cnc3cc(NCc4ccc(OC)c(OC)c4)ccc32)cc1")
700
>>> observed_result("COc1ccc(-n2cnc3cc(NCc4ccc(C(C)C)cc4)ccc32)cc1")
1.1
>>> observed_result("COc1ccc(-n2cnc3cc(NCc4ccc(Cl)cc4)ccc32)cc1")
40
>>> observed_result("CCOc1ccc(CNc2ccc3c(c2)ncn3-c2ccc(OC)cc2)cc1")
3
>>> observed_result("COc1ccc(CNc2ccc3c(c2)ncn3-c2ccccc2OC)cc1")
2000
>>> observed_result("COc1ccc(CNc2ccc3c(c2)ncn3-c2ccc(C)cc2)cc1")
20
>>> observed_result("COc1ccccc1-n1cnc2cc(NCc3cccc(OC)c3OC)ccc21")
5000
>>> observed_result("COc1ccc(-n2cnc3cc(NCc4ccc(C)cc4)ccc32)cc1")
3
>>> observed_result("COc1ccc(CNc2ccc3c(c2)ncn3-c2ccccc2)cc1")
30
>>> observed_result("COc1ccc(-n2cnc3cc(NCc4ccccc4O)ccc32)cc1")
180
>>> observed_result("COc1ccc(-n2cnc3cc(N(Cc4ccc(C(C)C)cc4)C(C)=O)ccc32)cc1")
400
>>> observed_result("Brc1ccc(CNc2ccc3c(c2)ncn3-c2ccccc2)cc1")
400
